- System: HL-1
- PROTOCOL DESCRIPTION: relative cell viability (CellTiter-Glo) vs DMSO control (% of DMSO control); higher = more viable cells
- CONDITION DETAILS: oxygen condition: hypoxia 48 h (1% O2) + reoxygenation 24 h; 40 nM
The entries below are paired with their reported relative cell viability.

STRUCTURE: CC[C@H](C)[C@H](N)C1=N[C@H](C(=O)N[C@@H](CC(C)C)C(=O)N[C@H](CCC(=O)[O-])C(=O)N[C@H](C(=O)N[C@H]2CCCCNC(=O)[C@H](CC(N)=O)NC(=O)[C@@H](CC(=O)[O-])NC(=O)[C@H](Cc3cnc[nH]3)NC(=O)[C@@H](Cc3ccccc3)NC(=O)[C@H]([C@@H](C)CC)NC(=O)[C@@H](CCCN)NC2=O)[C@@H](C)CC)CS1.[Zn+2]
ENDPOINT RESULT: 95.4

Note: attention shifts to another entry.
response.value for `CCCSc1nc(N[C@@H]2C[C@H]2c2ccc(F)c(F)c2)c2nnn([C@@H]3C[C@H](OCCO)[C@@H](O)[C@H]3O)c2n1` (field: relative cell viability) = 109

====

- System: HL-1
- PROTOCOL DESCRIPTION: relative cell viability (CellTiter-Glo) vs DMSO control (% of DMSO control); higher = more viable cells
- CONDITION DETAILS: oxygen condition: hypoxia 48 h (1% O2) + reoxygenation 24 h; 200 nM
Counter-ions that a name gives are not always drawn.
Reported values of relative cell viability for individual entries
Answer using only a numeral; do not append any unit.

Sample records with relative cell viability:
MOLECULE: CNC(=O)CN(CCN(CCN(CC(=O)[O-])CC(=O)NC)CC(=O)[O-])CC(=O)[O-].[Gd+3] [Gadodiamide]
relative cell viability: 104
//
MOLECULE: N[C@@H]1CCCCN(c2c(F)cc3c(=O)c(C(=O)O)cn(C4CC4)c3c2Cl)C1 [Besifloxacin HCl]
relative cell viability: 99.1
//
MOLECULE: CCCC(=O)[O-].[Na+] [Sodium butyrate]
relative cell viability: 101
//
MOLECULE: COc1ccc(-c2nc3cc(C4=NNC(=O)CC4C)ccc3[nH]2)cc1 (stereo not drawn)
relative cell viability: 108
//
MOLECULE: COc1cc([C@@H]2c3cc4c(cc3[C@@H](O[C@@H]3O[C@@H]5CO[C@@H](c6cccs6)O[C@H]5[C@H](O)[C@H]3O)[C@H]3COC(=O)[C@H]23)OCO4)cc(OC)c1O [Teniposide]
relative cell viability: 102
//
MOLECULE: O=C1CCc2cc(OCCCCc3nnnn3C3CCCCC3)ccc2N1
relative cell viability: 107
//
MOLECULE: CN(CCOc1ccc(NS(C)(=O)=O)cc1)CCc1ccc(NS(C)(=O)=O)cc1 [Dofetilide]
relative cell viability: 99.8
//
MOLECULE: CCCCN(CCCC)CCCOC(=O)c1ccc(N)cc1
relative cell viability: 101

For record `COc1ccc2c(c1)C(=O)N(CCc1ccc(S(=O)(=O)NC(=O)NC3CCCCC3)cc1)C(=O)C2(C)C` the listed relative cell viability is 108

Looking up NS(=O)(=O)c1cc2c(cc1Cl)NC(C(Cl)Cl)NS2(=O)=O (stereo not drawn) [Trichlormethiazide] , I found its relative cell viability recorded as 109

====

Items are presented alongside their recorded relative cell viability.
- Tested on: HL-1
- PROTOCOL DESCRIPTION: relative cell viability (CellTiter-Glo) vs DMSO control (% of DMSO control); higher = more viable cells
- CONDITION DETAILS: oxygen condition: normoxia 72 h; 1000 nM
Counter-ions that a name gives are not always drawn.
Reply briefly: the number, and no unit.

Observe how each entry below is paired with its result.
COMPOUND: Cc1cccc(Nc2ccncc2S(=O)(=O)NC(=O)NC(C)C)c1 [Torsemide]
ENDPOINT RESULT: 112
--
COMPOUND: CO[C@@H]1[C@@H](OC(N)=O)[C@@H](O)[C@H](Oc2ccc3c(O)c(NC(=O)c4ccc(O)c(CC=C(C)C)c4)c(=O)oc3c2C)OC1(C)C [Novobiocin sodium]
ENDPOINT RESULT: 101
--
COMPOUND: COc1cccc2c1C(=O)c1c(O)c3c(c(O)c1C2=O)C[C@@](O)(C(C)=O)C[C@@H]3O[C@H]1C[C@H](N)[C@H](O)[C@H](C)O1 [Daunorubicin HCl]
ENDPOINT RESULT: 10.3
--
COMPOUND: O=C(O)C1(C(=O)O)CCC1.[NH2-].[NH2-].[Pt+2]
ENDPOINT RESULT: 108
--
COMPOUND: Cc1nc2c([nH]1)-c1ccccc1N(C(=O)c1ccc(NC(=O)c3ccccc3-c3ccccc3)cc1)CC2 [Conivaptan HCl]
ENDPOINT RESULT: 89.2
--
COMPOUND: CN1CCCCC1CCN1c2ccccc2Sc2ccc([S+](C)[O-])cc21 (stereo unspecified) [Mesoridazine Besylate]
ENDPOINT RESULT: 117
--
COMPOUND: C[C@]12CC[C@@H]3c4ccc(O)cc4CC[C@H]3[C@@H]1C[C@@H](O)[C@@H]2O
ENDPOINT RESULT: 99.8
--
COMPOUND: COc1cc2nc(N3CCN(C(=O)C4COc5ccccc5O4)CC3)nc(N)c2cc1OC (stereo unspecified) [Doxazosin mesylate]
ENDPOINT RESULT: 103

Please look at the following compound next.
Short answer on HL-1 for CCN(Cc1ccncc1)C(=O)C(CO)c1ccccc1 (stereo unspecified) [Tropicamide] , relative cell viability: 101
